# EC50 (accumulation of intracellular cGMP) per entry
Biological target: T1, human natriuretic peptide receptor A (human, UniProt P16066 33-1061)
T1 sequence (looked up): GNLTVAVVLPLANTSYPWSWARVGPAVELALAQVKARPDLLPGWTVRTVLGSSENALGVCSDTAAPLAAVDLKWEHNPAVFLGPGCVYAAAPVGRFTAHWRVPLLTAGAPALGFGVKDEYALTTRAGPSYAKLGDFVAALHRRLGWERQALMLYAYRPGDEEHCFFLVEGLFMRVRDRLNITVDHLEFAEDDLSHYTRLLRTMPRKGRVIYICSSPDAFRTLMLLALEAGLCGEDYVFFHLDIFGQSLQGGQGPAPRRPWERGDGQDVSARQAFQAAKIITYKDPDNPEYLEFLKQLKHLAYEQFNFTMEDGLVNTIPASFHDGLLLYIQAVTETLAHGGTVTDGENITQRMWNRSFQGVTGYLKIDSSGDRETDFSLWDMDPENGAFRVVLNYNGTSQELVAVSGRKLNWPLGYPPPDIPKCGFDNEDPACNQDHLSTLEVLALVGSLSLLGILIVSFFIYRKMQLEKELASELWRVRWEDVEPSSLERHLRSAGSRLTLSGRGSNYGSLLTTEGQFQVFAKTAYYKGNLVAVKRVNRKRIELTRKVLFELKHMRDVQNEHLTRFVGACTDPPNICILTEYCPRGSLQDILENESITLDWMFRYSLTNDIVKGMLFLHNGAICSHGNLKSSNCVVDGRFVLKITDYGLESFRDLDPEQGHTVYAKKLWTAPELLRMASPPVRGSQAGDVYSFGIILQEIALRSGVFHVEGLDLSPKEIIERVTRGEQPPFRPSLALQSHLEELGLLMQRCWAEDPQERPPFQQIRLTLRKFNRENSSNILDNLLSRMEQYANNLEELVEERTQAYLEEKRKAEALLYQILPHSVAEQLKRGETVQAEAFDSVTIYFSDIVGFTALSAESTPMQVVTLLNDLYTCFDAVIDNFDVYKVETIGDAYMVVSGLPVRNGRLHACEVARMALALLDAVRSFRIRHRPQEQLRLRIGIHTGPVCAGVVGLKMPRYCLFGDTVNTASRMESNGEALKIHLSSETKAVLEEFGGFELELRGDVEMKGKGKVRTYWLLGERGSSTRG
Test: cell-based or functional assay
Square brackets hold non-standard residues; d marks the D form. Ends that are not written are not given here. keto‑piperazine surrogate = not defined here; Nle = CCCC[C@H](N)C(=O)O
PARAMETER MEASURED: EC50 (accumulation of intracellular cGMP) (nM)

[[record]]
binder = "[Nle]AHFGGR[Nle]DRISAY[keto‑piperazine surrogate] (reading uncertain; also: further groups not given here, Linear synthetic construct modelled on mini-ANP) [Construct 1-16]"
experimental_value = 340

[[record]]
binder = "[keto‑piperazine surrogate]AHFGGR[Nle]DRISAYR (reading uncertain; also: further groups not given here, Linear synthetic construct) [Construct 1-9]"
experimental_value = 550

[[record]]
binder = "[keto‑piperazine surrogate]AHFGGR[Nle]DRISAY[keto‑piperazine surrogate] (reading uncertain; also: further groups not given here, Linear synthetic construct) [Construct 1-30]"
experimental_value = 80.5

